# Tested on: Rattus norvegicus
# Method Description: Compound was tested for its effect on the gastric emptying rate of phenol red semisolid meal through the stomach at oral dose of 3.0 mg/kg in rats.
# Format: functional
Property: Gastric emptying (%)
One number for each entry, in %.

Batch request: Gastric emptying for each of the following compounds.
1. CCN1CCCCCCCC(NC(=O)c2cc3[nH]nnc3cc2OC)C1 (stereo unspecified)
2. CCN1CCCCC(NC(=O)c2cc3nnn(C(C)C)c3cc2OC)C1 (stereo unspecified)
3. O=c1[nH]c2ccccc2n1CCCN1CCC(n2c(=O)[nH]c3cc(Cl)ccc32)CC1
4. CCOc1cc2[nH]nnc2cc1C(=O)NC1CCCCN(CC)C1 (stereo unspecified)

1. 31
2. 16
3. 0
4. 18

Hi there! I need Gastric emptying for each item below, if you can.
1. CCCN1CCCCC(NC(=O)c2cc3[nH]nnc3cc2OC)C1 (stereo unspecified)
2. CCN1CCCCCC(NC(=O)c2cc3[nH]nnc3cc2OC)C1 (stereo unspecified)

1: 17; 2: 21

----------
# System: Canis familiaris
# Method Description: Antiemetic activity was evaluated in vivo by the suppression of apomorphine-induced emesis in dogs at oral dose of 1.0 mg/kg
# Assay type: functional, Canis lupus familiaris
Note to self: class labels come from recorded Antiemetic activity, ranges listed here: lower segment = under 50%, middle segment = from 50% up to 90%, upper segment = 90% and over

Check out these entries, answers already filled in.
{"columns": ["Compound", "Tested System", "Class Label"],
 "data": [
  ["CCN1CCCCCCCC(NC(=O)c2cc3[nH]nnc3cc2OC)C1 (stereo unspecified)", "Canis familiaris", "lower segment"],
  ["CCN1CCCCC(NC(=O)c2cc3nnn(C)c3cc2OC)C1 (stereo unspecified)", "Canis familiaris", "middle segment"],
  ["CCN1CCCCC(NC(=O)c2cc3nnn(CC4CC4)c3cc2OC)C1 (stereo unspecified)", "Canis familiaris", "middle segment"],
  ["COc1cc2[nH]nnc2cc1C(=O)NC1CCCCN(C)C1 (stereo unspecified)", "Canis familiaris", "lower segment"],
  ["COc1cc2[nH]nnc2cc1C(=O)NC1CCCCN(C(C)C)C1 (stereo unspecified)", "Canis familiaris", "lower segment"]
]}

Class? Entry: O=c1[nH]c2ccccc2n1CCCN1CCC(n2c(=O)[nH]c3cc(Cl)ccc32)CC1 [DOMPERIDONE]
upper segment

Class for CCN(CC)CCNC(=O)c1cc(Cl)c(N)cc1OC [METOCLOPRAMIDE] ?
middle segment

Given CCOc1cc2[nH]nnc2cc1C(=O)NC1CCCCN(CC)C1 (stereo unspecified) , name the class its Antiemetic activity places it in.
lower segment

Could you place CCN1CCCCCCC(NC(=O)c2cc3[nH]nnc3cc2OC)C1 (stereo unspecified) in its proper category? Many thanks.
upper segment
